target: T1, human SIRPα v2-Fc (SIRPα2 extracellular domain fused to human IGHG1_Fc) (human, UniProt P78324 31-373; P0DOX5 223-449 = IgG part); assay: BLI Octet, antigen-Fc on biosensor;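 also: antigen captured on the biosensor tip and then immersed in solutions of the test antibodies, which act as the analyte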
T1 construct: as m38; also called V2 (e.g. SIRPα2); SIRPα V2:ESE
pKd: −log10 of the molar value.

Binder: SIRPAB-4 (antibody, human IgG1, kappa, V domains shown) VH: QVQLQESGPGLVKPSQTLSLTCTVSGGSISSGSPYWSWIRQHPGKGLEWIGYIYASGFTYYNPSLKSRVTISVDTSKNQFSLKLSSVTAADTAVYYCAREGYHSGMDVWGQGTTVTVSS VL: DIQMTQSPSSLSASVGDRVTITCQASQDISNYLNWYQQKPGKAPKLLIYDASNLATGVPSRFSGSGSGTDFTFTISSLQPEDIATYYCQQFAYLPWTFGGGTKVEIKR
pKd: 7.74

Binder: SIRPAB-1 (antibody, human IgG1, kappa, V domains shown) VH: QVQLQESGPGLVKPSQTLSLTCTVSGGSISSGGYYWSWIRQHPGKGLEWIGSIYYSGSTYYNPSLKSRVTISVDTSKNQFSLKLSSVTAADTAVYYCAREGYHSGMDVWGQGTTVTVSS VL: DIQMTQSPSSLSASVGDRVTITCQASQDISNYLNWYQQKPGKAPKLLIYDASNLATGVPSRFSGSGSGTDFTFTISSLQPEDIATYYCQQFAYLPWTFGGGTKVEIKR
pKd: 7.35

Binder: SIRPAB-10 (antibody, human IgG1, kappa, V domains shown) VH: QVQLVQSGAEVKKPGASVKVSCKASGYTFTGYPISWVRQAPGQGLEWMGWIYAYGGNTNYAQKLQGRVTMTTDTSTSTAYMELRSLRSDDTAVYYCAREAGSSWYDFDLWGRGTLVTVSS VL: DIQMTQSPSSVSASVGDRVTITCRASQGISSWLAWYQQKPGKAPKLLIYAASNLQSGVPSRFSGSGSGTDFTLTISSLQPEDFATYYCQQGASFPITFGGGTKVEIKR
pKd: 8.97

Binder: SIRPAB-13 (antibody, human IgG1, kappa, V domains shown) VH: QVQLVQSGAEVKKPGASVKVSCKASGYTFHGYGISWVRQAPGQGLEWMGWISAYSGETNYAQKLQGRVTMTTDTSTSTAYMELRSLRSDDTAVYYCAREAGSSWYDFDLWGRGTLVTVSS VL: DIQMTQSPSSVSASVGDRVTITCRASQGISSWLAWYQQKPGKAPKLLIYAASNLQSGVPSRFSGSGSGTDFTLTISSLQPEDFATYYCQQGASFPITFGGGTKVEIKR
pKd: 7.76

Binder: SIRPAB-9 (antibody, human IgG1, kappa, V domains shown) VH: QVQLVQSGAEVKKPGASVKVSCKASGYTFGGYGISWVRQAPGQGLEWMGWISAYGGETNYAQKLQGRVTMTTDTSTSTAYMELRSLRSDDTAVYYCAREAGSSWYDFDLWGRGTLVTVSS VL: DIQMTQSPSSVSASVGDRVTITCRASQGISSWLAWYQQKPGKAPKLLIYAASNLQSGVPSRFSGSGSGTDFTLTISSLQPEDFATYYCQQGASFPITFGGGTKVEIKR
pKd: 7.64

FYI, the data here is from patent US20200102387A1.
